target: Serine/threonine-protein kinase 33 (Homo sapiens) (UniProt Q9BYT3); assay: inhibitors of purified STK33 kinase, primary screen, biochemical, ADP-Glo luminescence, homogeneous, cell-free (AID 2661); details: purified STK33, MBP phosphorylation, at 10 µM
Sequence (Q9BYT3 whole entry, looked up): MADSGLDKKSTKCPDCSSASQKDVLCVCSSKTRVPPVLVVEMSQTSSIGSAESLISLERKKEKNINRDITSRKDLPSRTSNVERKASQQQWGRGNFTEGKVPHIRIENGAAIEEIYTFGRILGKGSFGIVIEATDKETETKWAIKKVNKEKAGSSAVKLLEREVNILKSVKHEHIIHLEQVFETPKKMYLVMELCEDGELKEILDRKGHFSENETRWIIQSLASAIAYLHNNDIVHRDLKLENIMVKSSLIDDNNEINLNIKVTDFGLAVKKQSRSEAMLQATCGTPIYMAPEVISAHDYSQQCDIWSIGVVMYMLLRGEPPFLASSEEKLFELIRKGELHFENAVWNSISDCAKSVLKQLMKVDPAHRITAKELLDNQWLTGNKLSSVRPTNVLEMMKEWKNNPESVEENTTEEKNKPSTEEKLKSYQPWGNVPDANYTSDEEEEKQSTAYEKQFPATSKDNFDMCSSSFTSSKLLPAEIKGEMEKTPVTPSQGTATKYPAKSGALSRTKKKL
The whole screen tested about 320,000 compounds, of which about 240 (0.075%) were called active.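 Rule for the calls: active = inhibition at or above 25%, using the most active replicate where run in duplicate; inactive = inhibition below 25%.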 For the sample, actives were picked, then their nearest neighbours and some compounds at random.
Outcome codes: active, inactive

COMPOUND: CC(=O)C(CC(=O)N1CCCC1)C(=O)Nc1ccc(Cl)cc1 (centres undefined)
DISCRETE_LABEL: inactive
//
COMPOUND: COc1ccc(Cl)cc1NC(=O)COC(=O)c1ccc(Br)o1
DISCRETE_LABEL: inactive
//
COMPOUND: CCOC(=O)C1CCN(C(=O)CN2C(=O)NC(C)(c3ccc4cc(OC)ccc4c3)C2=O)CC1 (centres undefined)
DISCRETE_LABEL: inactive
//
COMPOUND: CC1Cc2ccccc2N1S(=O)(=O)c1cccc(C(=O)OCC(=O)N2CCOCC2)c1 (centres undefined)
DISCRETE_LABEL: inactive
//
COMPOUND: O=C(Nc1ccccc1-c1nnn(CC(=O)N2CCN(c3ccccc3)CC2)n1)c1cccs1
DISCRETE_LABEL: inactive
//
COMPOUND: O=C(CCc1ccc(S(=O)(=O)N2CCOCC2)cc1)OCC(=O)c1ccc(Br)cc1
DISCRETE_LABEL: inactive
//
COMPOUND: COc1ccc(C(=O)C(C)OC(=O)c2cccc(S(=O)(=O)Nc3c(C)n(C)n(-c4ccccc4)c3=O)c2)cc1 (centres undefined)
DISCRETE_LABEL: inactive
//
COMPOUND: CC1CN(C(=O)c2ccc([N+](=O)[O-])s2)CC(C)O1 (centres undefined)
DISCRETE_LABEL: inactive
//
COMPOUND: COc1ccc2sc(-c3ccc(S(C)(=O)=O)cc3)c(C#Cc3cncn3C)c2c1
DISCRETE_LABEL: inactive
//
COMPOUND: Cn1c(N)c(C(=O)COC(=O)c2ccc3ccccc3c2)c(=O)n(C)c1=O
DISCRETE_LABEL: inactive
//
COMPOUND: Cc1ccc(NC(=O)Cn2cnc3c(OCc4ccccc4)ncnc32)cc1C
DISCRETE_LABEL: inactive
//
COMPOUND: O=C(Nc1ccccc1-c1nc2ccccc2[nH]c1=O)c1cccs1
DISCRETE_LABEL: active
//
COMPOUND: COc1cc(C(=O)NC2CCN(C)CC2)ccc1Nc1ncc2c(n1)N(C1CCC(O)CC1)CCC(=O)N2C (centres undefined)
DISCRETE_LABEL: active
//
COMPOUND: COc1ccc(-n2cnc3cc(C(=O)NC4CCCC4)ccc32)cc1
DISCRETE_LABEL: inactive
//
COMPOUND: CN=C(Nc1cccc(S(=O)(=O)N2CCOCC2)c1)c1ccccc1
DISCRETE_LABEL: inactive
//
COMPOUND: O=C(OCCN1C(=O)c2ccccc2C1=O)[C@@H]1CC(O)CN1S(=O)(=O)c1ccccc1[N+](=O)[O-] (some centres undefined)
DISCRETE_LABEL: inactive
//
COMPOUND: CC(OC(=O)c1ccc(Cl)cc1O)C(=O)NCCC1=CCCCC1 (centres undefined)
DISCRETE_LABEL: inactive
//
COMPOUND: O=C1CC2(CCCC2)C(=O)N1CN1CCN(S(=O)(=O)c2ccc(F)cc2F)CC1
DISCRETE_LABEL: inactive
//
COMPOUND: COc1ccccc1N=Cc1c(O)c2ccccc2oc1=O
DISCRETE_LABEL: inactive
//
COMPOUND: COc1ccc(C2(c3ccc(OC)cc3)NC(=O)N(CC(=O)Nc3cc(C)on3)C2=O)cc1
DISCRETE_LABEL: inactive
//
COMPOUND: O=C(CNC(=O)c1n[nH]c2ccccc12)Nc1cc(Cl)ccc1Cl
DISCRETE_LABEL: inactive
//
COMPOUND: CC1(c2ccccc2)NC(=O)N(CC(=O)N2CC(=O)Nc3ccccc32)C1=O (centres undefined)
DISCRETE_LABEL: inactive
//
COMPOUND: Cc1ccc(C(=O)OCC(=O)N2CCCCCC2)cc1S(=O)(=O)N1CCOCC1
DISCRETE_LABEL: inactive
//
COMPOUND: OCCCNc1nccc(-c2cc(Nc3cccc(Cl)c3)ncn2)n1
DISCRETE_LABEL: inactive
//
COMPOUND: C[C@H](CO)N1C[C@H](C)[C@@H](CN(C)C(=O)NC2CCCCC2)Oc2ccc(NC(=O)c3ccncc3)cc2C1=O
DISCRETE_LABEL: inactive
//
COMPOUND: CN(CC(=O)NCCc1ccc(S(N)(=O)=O)cc1)CC(=O)Nc1ccc(F)c(F)c1F
DISCRETE_LABEL: inactive
//
COMPOUND: O=C(N[C@@H]1C/C=C\C[C@@H](CC(=O)N(CCO)Cc2ccccc2)C(=O)N[C@H](Cc2ccccc2)COC1=O)OCC1c2ccccc2-c2ccccc21
DISCRETE_LABEL: inactive
//
COMPOUND: COc1cc(N=Cc2c(O)[nH]c3ccccc23)cc(OC)c1OC
DISCRETE_LABEL: active
//
COMPOUND: COc1ccc(C(=O)Nc2cc(S(=O)(=O)N3CCCC3)ccc2Cl)cc1
DISCRETE_LABEL: inactive

* * *

Measured inhibition, listed per entry.
molecular target: Serine/threonine-protein kinase 33 (Homo sapiens) (UniProt Q9BYT3); test: inhibitors of purified STK33 kinase, primary screen, biochemical, ADP-Glo luminescence, homogeneous, cell-free (AID 2661); conditions: purified STK33, MBP phosphorylation, at 10 µM, hits give high values
Hit rate of the full screen: of about 320,000 compounds, about 240 (0.075%) were called active. The sample holds actives, similar compounds and a random draw of the others, so the mix is not that of the screen.

COMPOUND: COc1cc(OC)cc(-c2cc3ccc(F)cc3cn2)c1
inhibition (%): 1.46

COMPOUND: Cc1ccc(S(=O)(=O)N2CCCCC2)cc1NC(=O)CCNC(=O)c1ccccc1
inhibition (%): -0.0957

COMPOUND: CC(NC(=O)COC(=O)CCC(=O)c1ccc(Cl)cc1)c1ccccc1 (stereo not given)
inhibition (%): 0.0433

COMPOUND: CC(C#N)OC(=O)c1cccnc1SCC(=O)Nc1ccc2c(c1)OCO2 (stereo not given)
inhibition (%): 0.605

COMPOUND: CC(C)(C)OC(=O)C[C@H]1C/C=C\C[C@@H](CC(=O)N[C@H](CO)Cc2ccccc2)C(=O)NC[C@@H](c2ccccc2)OC1=O
inhibition (%): -0.103

* * *

target: Serine/threonine-protein kinase 33 (Homo sapiens) (UniProt Q9BYT3); assay: inhibitors of purified STK33 kinase, primary screen, biochemical, ADP-Glo luminescence, homogeneous, cell-free (AID 2661); settings: purified STK33, MBP phosphorylation, at 10 µM, hits give high values
The campaign covered roughly 320,000 compounds. About 240 (0.075%) were called active. The sample holds actives, similar compounds and a random draw of the others, so the mix is not that of the screen.
This section presents molecules with their documented inhibition values.
RECORDED_METRIC: inhibition (%)

MOLECULE: CCCc1cc(=O)[nH]c(SCC(=O)Nc2ccc(S(=O)(=O)N3CCCC3)cc2)n1
QUANTITATIVE_RESULT: -1.05
//
MOLECULE: Cc1ccccc1NC(=O)CSC(=O)c1ccccc1
QUANTITATIVE_RESULT: -0.158
//
MOLECULE: O=C(COC(=O)c1cccnc1Cl)NC(=O)NC1CCCCC1
QUANTITATIVE_RESULT: -0.374
//
MOLECULE: COc1ccccc1C(=O)COC(=O)COc1ccc(C#N)cc1
QUANTITATIVE_RESULT: 5.03
//
MOLECULE: O=C1NC(Cc2ccc(O)cc2)c2nc3ccc(Cl)cc3c(=O)n2-c2ccccc21 (centres undefined)
QUANTITATIVE_RESULT: -0.58
//
MOLECULE: COc1ccccc1CNC(=O)COC(=O)c1cccs1
QUANTITATIVE_RESULT: -1
//
MOLECULE: NC(=O)Nc1ccc(C(=O)OCC(=O)NC2CCCc3ccccc32)cc1 (centres undefined)
QUANTITATIVE_RESULT: -0.0928
//
MOLECULE: COc1cccc2sc3cc(NCC[C@@H]4CCCN4C)ccc3c(=O)c12
QUANTITATIVE_RESULT: 4.13
//
MOLECULE: COc1ccc(C(=O)O)cc1S(=O)(=O)NC1CCN(Cc2ccccc2)CC1
QUANTITATIVE_RESULT: -0.986
//
MOLECULE: Cc1ccc(S(=O)(=O)Nc2ccc(F)c(S(=O)(=O)N3CCOCC3)c2)cc1
QUANTITATIVE_RESULT: -2.74
//
MOLECULE: CCOC(=O)[C@@H]1[C@H]2COc3ccc(Br)cc3[C@H]2N2C(=O)N(c3ccc(C)cc3)C(=O)[C@@]12C
QUANTITATIVE_RESULT: -0.0883
//
MOLECULE: Cc1ccc(NC(=O)c2ccc(Cl)nc2)cc1S(=O)(=O)N1CCOCC1
QUANTITATIVE_RESULT: -0.219
//
MOLECULE: CCn1c(/C=C/c2ccc([N+](=O)[O-])o2)nc2ccccc2c1=O
QUANTITATIVE_RESULT: 84.6
//
MOLECULE: CC1CCCCC1NCC(=O)Nc1ccccc1C(=O)Nc1ccccc1 (centres undefined)
QUANTITATIVE_RESULT: 0.481

The measurements presented in this section are drawn from PubChem BioAssay AID2661.
